Test system: WHIM2 (cells of a triple-negative basal-like breast cancer xenograft)
RUN_DESCRIPTION: cell viability of combination (% of vehicle); higher = less cytotoxic
EXPERIMENTAL_SETUP: 1 µM; 72 h; partner dose: 10 nM
READOUT: cell viability of combination
Format: numeric value only, no unit, no commentary.

Completed entries (count: 3):
Clc1ccc(CSC(Cn2ccnc2)c2ccc(Cl)cc2Cl)cc1.O=[N+]([O-])O (centres undefined) [Sulconazole Nitrate] + CN(C)C/C=C/C(=O)Nc1cc2c(Nc3ccc(F)c(Cl)c3)ncnc2cc1O[C@H]1CCOC1: 49.5
CN1CCN(CCCN2c3ccccc3Sc3ccc(C(F)(F)F)cc32)CC1.Cl.Cl [Trifluoperazine 2HCl] + CN(C)C/C=C/C(=O)Nc1cc2c(Nc3ccc(F)c(Cl)c3)ncnc2cc1O[C@H]1CCOC1: 44
O=C(C=Cn1cnc(-c2cc(C(F)(F)F)cc(C(F)(F)F)c2)n1)NNc1cnccn1 + CN(C)C/C=C/C(=O)Nc1cc2c(Nc3ccc(F)c(Cl)c3)ncnc2cc1O[C@H]1CCOC1: 41.9

Ask: Reported cell viability of combination for CO[C@@]12[C@H](COC(N)=O)C3=C(C(=O)C(C)=C(N)C3=O)N1C[C@@H]1N[C@@H]12 [Mitomycin C] + CN(C)C/C=C/C(=O)Nc1cc2c(Nc3ccc(F)c(Cl)c3)ncnc2cc1O[C@H]1CCOC1 : what is it?
Result: 35.1

----------
System: HCI13 (cells of an ER-positive luminal breast cancer xenograft)
RUN_DESCRIPTION: cell viability (% of vehicle); higher = less cytotoxic
EXPERIMENTAL_SETUP: 10 µM; 72 h
READOUT: cell viability
Please give only the number in your answer, with no unit.

Recorded results for 3 compounds are shown here.
O=c1cc(O)c(Cl)c[nH]1: 123
O=C([O-])CC(O)CC(O)C=Cc1c(C2CC2)nc2ccccc2c1-c1ccc(F)cc1.O=C([O-])CC(O)CC(O)C=Cc1c(C2CC2)nc2ccccc2c1-c1ccc(F)cc1.[Ca+2] (centres undefined): 148
CCCCN1CCCCC1C(=O)Nc1c(C)cccc1C.Cl (centres undefined) [Levobupivacaine HCl]: 121

Here is another compound to look at.
Ask: Look up cell viability for this compound: CCOc1cc(C(CS(C)(=O)=O)N2C(=O)c3cccc(NC(C)=O)c3C2=O)ccc1OC (centres undefined)
Result: 150

----------
Test system: UCD52 (cells of a triple-negative basal-like breast cancer xenograft)
RUN_DESCRIPTION: cell viability (% of vehicle); higher = less cytotoxic
EXPERIMENTAL_SETUP: 10 µM; 72 h
Rule: measured cell viability below 90 gets label 1; anything equal to or greater than 90 gets label 0.

Ask: Find out if reported cell viability for CNCc1ccc(-c2[nH]c3cc(F)cc4c3c2CCNC4=O)cc1.O=P(O)(O)O is less than 90
Result: label 0

Ask: Confirm or reject: cell viability of NNC(=O)c1ccncc1.Nc1ccc(C(=O)O)c(O)c1 lies strictly below 90
Result: label 0

----------
Test system: HCI11 (cells of an ER-positive luminal breast cancer xenograft)
RUN_DESCRIPTION: cell viability (% of vehicle); higher = less cytotoxic
EXPERIMENTAL_SETUP: 10 µM; 72 h
READOUT: cell viability
// print number alone

Example compounds with recorded cell viability:
Cc1nnc(SCC2=C(C(=O)[O-])N3C(=O)[C@@H](NC(=O)Cn4cnnn4)[C@H]3SC2)s1.[Na+] [Cefazolin (sodium salt)]: 85.9
CCCCCCNC(=O)n1cc(F)c(=O)[nH]c1=O [Carmofur]: 131
Brc1c(NC2=NCCN2)ccc2nccnc12.O=C(O)C(O)C(O)C(=O)O [Brimonidine Tartrate]: 89.9
COc1ccc(CNc2nc(N3CCCC3CO)ncc2C(=O)NCc2ncccn2)cc1Cl (stereo not drawn) [Avanafil]: 143

Ask: Param readout = cell viability; param system = HCI11; param query = Cc1c(N(C)C)c(=O)n(-c2ccccc2)n1C [Amidopyrine] ; response: value
Result: 93.2

Ask: Form field: cell viability recorded for CCC(C)C(=O)OC1CC(C)C=C2C=CC(C)C(CCC3CC(O)CC(=O)O3)C21 (stereo not drawn) [Lovastatin] with HCI11 (enter value)
Result: 181

Ask: Record NC(=O)N1c2ccccc2C=Cc2ccccc21 [Carbamazepine] : what is its cell viability with HCI11?
Result: 106

Ask: Query cell viability on HCI11 for CC(C=CC1=C(C)CCCC1(C)C)=CC=CC(C)=CC(=O)O [Tretinoin (Aberela)]
Result: 149

----------
System: HCI03 (cells of an ER-positive luminal breast cancer xenograft)
RUN_DESCRIPTION: cell viability (% of vehicle); higher = less cytotoxic
EXPERIMENTAL_SETUP: 10 µM; 72 h
Rule: measured cell viability below 100 gets 1; anything equal to or greater than 100 gets 0.

Answered cases to consult:
O=C([O-])P(=O)([O-])[O-].[Na+].[Na+].[Na+] [Foscarnet Sodium]: 1
Cc1c(OCC(F)(F)F)ccnc1CS(=O)c1nc2ccccc2[nH]1 (configuration not stated) [Dexlansoprazole]: 0
O=C1NC(=O)C(c2ccccc2)(c2ccccc2)N1: 0

Ask: Hello, is cell viability of the following compound strictly smaller than 100? CN(C)CCC(c1ccc(Cl)cc1)c1ccccn1.O=C(O)C=CC(=O)O (configuration not stated) [Chlorpheniramine Maleate]
Result: 0

Ask: Does the reported cell viability of CCCCCCOC(=O)N=C(N)c1ccc(NCc2nc3cc(C(=O)N(CCC(=O)OCC)c4ccccn4)ccc3n2C)cc1.CS(=O)(=O)O [Dabigatran etexilate mesylate] stay below 100?
Result: 0

Ask: Quick check: does CN1CCCC1CCOC(C)(c1ccccc1)c1ccc(Cl)cc1.O=C(O)C=CC(=O)O (configuration not stated) [Clemastine Fumarate] have cell viability under 100?
Result: 1

----------
Tested on: HCI09 (cells of a triple-negative luminal androgen receptor type breast cancer xenograft)
RUN_DESCRIPTION: cell viability (% of vehicle); higher = less cytotoxic
EXPERIMENTAL_SETUP: 10 µM; 72 h
Structures can show the parent of a compound that is named as a salt.
# if measured cell viability < 90: True  # else: False

Answered examples (2):
C=C1C(=CC=C2CCCC3(C)C2CCC3C(C)CCCC(C)(C)O)CC(O)CC1O (configuration not stated) [Calcitriol]: True
CC(=O)OCC(=O)NCCCOc1cccc(CN2CCCCC2)c1.Cl [Roxatidine Acetate HCl]: False

Ask: Here's an entry: Cc1nccn1CC1CCc2c(c3ccccc3n2C)C1=O.Cl.O.O (configuration not stated) [Ondansetron hydrochloride dihydrate] . Is its cell viability below 90?
Result: False

Ask: Would you kindly verify if cell viability of Cc1onc(-c2ccccc2Cl)c1C(=O)NC1C(=O)N2C1SC(C)(C)C2C(=O)[O-].O.[Na+] (configuration not stated) [Cloxacillin Sodium] is strictly less than 90?
Result: False

Ask: In the record for COCCCN1CCC(NC(=O)c2cc(Cl)c(N)c3c2OCC3)CC1 [Prucalopride] , is cell viability less than 90?
Result: False

Ask: Quick check: does CCCC(C(=O)OCCN(CC)CC)(c1ccccc1)c1ccccc1.Cl [SKF 525A (hydrochloride)] have cell viability under 90?
Result: False

Ask: Consider the molecule CC(=O)OCC(=O)C1CCC2C3CCC4=CC(=O)CCC4(C)C3CCC12C (configuration not stated) [Deoxycorticosterone acetate] . Is its cell viability strictly less than 90?
Result: False

Ask: Please check: cell viability for CC(C)OC(=O)C(C)(C)Oc1ccc(C(=O)c2ccc(Cl)cc2)cc1 [Fenofibrate] , strictly under 90 or not?
Result: False

Ask: Consider CN1CCN(c2cc3c(cc2F)c(=O)c(C(=O)O)cn3-c2ccc(F)cc2)CC1 [Difloxacin HCl] . Does its cell viability lie strictly below 90?
Result: True

Ask: Is 90 strictly greater than the molecule's reported cell viability? molecule: CC(Nc1ncnc2nc[nH]c12)c1cc2cccc(Cl)c2c(=O)n1-c1ccccc1 (configuration not stated)
Result: True

Ask: Answer whether the molecule CC1(COc2ccc3c(c2)ncn3-c2ccc3cccc(N4CCC(N)CC4)c3n2)COC1 has cell viability strictly less than 90
Result: True

Ask: Dear colleague, could you confirm whether cell viability of O=C(CCCN1CCC(O)(c2ccc(Cl)cc2)CC1)c1ccc(F)cc1 [Haloperidol] falls below 90? Thanks.
Result: True

Ask: Dear reviewer, please state whether O=c1[nH]c(=O)n(C2CC(O)C(CO)O2)cc1I (configuration not stated) [Idoxuridine] has cell viability strictly beneath 90.
Result: False

Ask: Is 90 strictly greater than the molecule's reported cell viability? molecule: CC/C(=C(\c1ccccc1)c1ccc(OCCN(C)C)cc1)c1ccccc1 [Tamoxifen]
Result: True

----------
Test system: HCI11
RUN_DESCRIPTION: cell viability (% of vehicle); higher = less cytotoxic
EXPERIMENTAL_SETUP: 10 µM; 72 h
READOUT: cell viability
# respond with the number and nothing more

Ask: What does the record list as cell viability for COc1ccc(CC2c3cc(OC)c(OC)cc3CC[N+]2(C)CCC(=O)OCCCCCOC(=O)CC[N+]2(C)CCc3cc(OC)c(OC)cc3C2Cc2ccc(OC)c(OC)c2)cc1OC.O=S(=O)([O-])c1ccccc1.O=S(=O)([O-])c1ccccc1 (stereo not drawn) [Atracurium Besylate] ?
Result: 81

Ask: I'd like to know its cell viability. The molecule in question is COc1cc2nc(N3CCN(C(=O)c4ccco4)CC3)nc(N)c2cc1OC.Cl [Prazosin HCl]
Result: 131

Ask: Suppose we examine the molecule CCc1oc2ccccc2c1C(=O)c1cc(Br)c(O)c(Br)c1 ; what cell viability value has been reported?
Result: 98
